- Test Summary: Solubility in PBS
- Type: physicochemical
This listing pairs compounds with measured Solubility.
The reply should be a number in µM, with the unit left off.

The following compounds have reported results that may help.
CCN(CC(=O)O)C[C@@H]1NC(=O)[C@H](CC(=O)O)NC(=O)C2(CCCC=CCCCOC(=O)N3CC[C@@](C(=O)N[C@@H](Cc4ccsc4)C(=O)N[C@@H](Cc4csc5ccccc45)C(=O)N[C@@H](CCC(N)=O)C(N)=O)(C3)NC(=O)[C@H]([C@@H](C)O)NC(=O)[C@H](Cc3ccccc3)NC(=O)[C@H](C)NC(=O)[C@H](C)NC1=O)CCCC=CC[C@]1(CCCN1C(C)=O)C(=O)N[C@@H](CC(=O)O)C(=O)N[C@@H](CC(C)(C)C)C(=O)N2 (some centres unmarked) [I-968]; 30
CC(=O)N1CCC[C@]12CC=CCCCC1(CCCC=CCCCCCC[C@@](C)(C(=O)N[C@@H](Cc3ccccc3)C(=O)N[C@@H](Cc3c[nH]c4ccccc34)C(=O)N[C@@H](CCC(N)=O)C(N)=O)NC(=O)[C@H](C(C)C)NC(=O)[C@H](C)NC(=O)[C@H](C)NC(=O)[C@H](C)NC(=O)[C@H](CC(=O)O)NC(=O)[C@H](CC(=O)O)NC1=O)NC(=O)[C@H](C)NC(=O)[C@H](CC(=O)O)NC2=O (some centres unmarked) [I-353]; 45
CC(=O)N1CCC[C@]12CC=CCCCC1(CCCC=CCCCOC(=O)N3CC[C@@](C(=O)N[C@@H](Cc4ccccc4Cl)C(=O)N[C@@H](Cc4csc5ccccc45)C(=O)N[C@H](C(N)=O)[C@@H](C)O)(C3)NC(=O)[C@H](CC(C)C)NC(=O)[C@H](Cc3ccccc3)NC(=O)[C@H](C)NC(=O)[C@H](C)NC(=O)[C@H](CC(=O)O)NC(=O)[C@H](CC(=O)O)NC1=O)NC(=O)[C@H](CC(C)(C)C)NC(=O)[C@H](CC(=O)O)NC2=O (some centres unmarked) [I-1069]; 10
CC(=O)N1CCC[C@]12CC=CCCCC1(CCCC=CCCCCCC[C@@](C)(C(=O)N[C@@H](Cc3ccsc3)C(=O)N[C@@H](Cc3csc4ccccc34)C(=O)N[C@@H](CCC(N)=O)C(N)=O)NC(=O)[C@H](CC(N)=O)NC(=O)[C@H](Cc3ccccc3)NC(=O)[C@H](C)NC(=O)[C@H](C)NC(=O)[C@H](CC(=O)O)NC(=O)[C@H](CC(=O)O)NC1=O)NC(=O)[C@H](CC(C)(C)C)NC(=O)C[C@H](CC(=O)O)NC2=O (some centres unmarked) [I-1164]; 50

Now for the compound whose Solubility we want.
What value of Solubility has been recorded for this entry: CC(=O)N1CCC[C@]12CC=CCCCC1(CCCC=CCCCOC(=O)N3CC[C@@](C(=O)N[C@@H](Cc4ccccc4Cl)C(=O)N[C@@H](Cc4csc5ccccc45)C(=O)N[C@@H](CCC(N)=O)C(N)=O)(C3)NC(=O)[C@H]([C@@H](C)O)NC(=O)[C@H](Cc3ccccc3)NC(=O)[C@H](C)NC(=O)[C@H](C)NC(=O)[C@H](CC(N)=O)NC(=O)[C@H](CC(=O)O)NC1=O)NC(=O)[C@H](CC(C)(C)C)NC(=O)[C@H](CC(=O)O)NC2=O (some centres unmarked)
10

Data origin: patent US20240116985A1
